target: p110 alpha (Homo sapiens); construct: purchased Upstate Group, Millipore; Dundee, UK; experiment: PI3K Isoform Inhibition Assay, p110 alpha (delta/alpha selectivity); details: ratio of biochemical IC50 values
Sequence (P42336 whole entry, canonical isoform): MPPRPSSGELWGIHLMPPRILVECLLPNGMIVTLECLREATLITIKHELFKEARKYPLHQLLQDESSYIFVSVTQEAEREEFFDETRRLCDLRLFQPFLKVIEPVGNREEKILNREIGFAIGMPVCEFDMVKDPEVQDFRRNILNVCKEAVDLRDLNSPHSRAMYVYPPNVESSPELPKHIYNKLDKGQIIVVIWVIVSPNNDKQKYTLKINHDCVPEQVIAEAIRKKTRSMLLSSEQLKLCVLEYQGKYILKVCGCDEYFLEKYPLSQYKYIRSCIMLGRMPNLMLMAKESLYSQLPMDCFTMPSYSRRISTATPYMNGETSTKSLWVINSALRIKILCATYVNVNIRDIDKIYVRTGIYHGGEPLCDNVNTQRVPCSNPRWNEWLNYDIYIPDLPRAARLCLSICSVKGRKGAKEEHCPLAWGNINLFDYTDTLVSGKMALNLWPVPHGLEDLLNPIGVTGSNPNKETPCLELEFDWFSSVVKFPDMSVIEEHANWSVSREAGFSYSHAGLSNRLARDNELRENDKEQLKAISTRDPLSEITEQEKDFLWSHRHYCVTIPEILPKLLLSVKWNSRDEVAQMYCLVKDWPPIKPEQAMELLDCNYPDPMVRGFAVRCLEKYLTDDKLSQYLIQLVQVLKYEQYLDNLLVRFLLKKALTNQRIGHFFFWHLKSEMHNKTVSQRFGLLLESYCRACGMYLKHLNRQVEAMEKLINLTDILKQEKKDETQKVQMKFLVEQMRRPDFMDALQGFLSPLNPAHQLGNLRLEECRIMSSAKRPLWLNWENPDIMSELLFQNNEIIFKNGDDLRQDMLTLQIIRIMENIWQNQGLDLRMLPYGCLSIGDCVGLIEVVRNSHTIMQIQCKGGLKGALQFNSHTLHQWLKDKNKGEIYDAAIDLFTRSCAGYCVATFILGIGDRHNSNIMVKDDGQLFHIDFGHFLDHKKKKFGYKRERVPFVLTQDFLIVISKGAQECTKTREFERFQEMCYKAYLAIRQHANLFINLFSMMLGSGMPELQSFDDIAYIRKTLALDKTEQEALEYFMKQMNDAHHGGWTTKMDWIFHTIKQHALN
Sequence (P27986 whole entry partner, canonical isoform): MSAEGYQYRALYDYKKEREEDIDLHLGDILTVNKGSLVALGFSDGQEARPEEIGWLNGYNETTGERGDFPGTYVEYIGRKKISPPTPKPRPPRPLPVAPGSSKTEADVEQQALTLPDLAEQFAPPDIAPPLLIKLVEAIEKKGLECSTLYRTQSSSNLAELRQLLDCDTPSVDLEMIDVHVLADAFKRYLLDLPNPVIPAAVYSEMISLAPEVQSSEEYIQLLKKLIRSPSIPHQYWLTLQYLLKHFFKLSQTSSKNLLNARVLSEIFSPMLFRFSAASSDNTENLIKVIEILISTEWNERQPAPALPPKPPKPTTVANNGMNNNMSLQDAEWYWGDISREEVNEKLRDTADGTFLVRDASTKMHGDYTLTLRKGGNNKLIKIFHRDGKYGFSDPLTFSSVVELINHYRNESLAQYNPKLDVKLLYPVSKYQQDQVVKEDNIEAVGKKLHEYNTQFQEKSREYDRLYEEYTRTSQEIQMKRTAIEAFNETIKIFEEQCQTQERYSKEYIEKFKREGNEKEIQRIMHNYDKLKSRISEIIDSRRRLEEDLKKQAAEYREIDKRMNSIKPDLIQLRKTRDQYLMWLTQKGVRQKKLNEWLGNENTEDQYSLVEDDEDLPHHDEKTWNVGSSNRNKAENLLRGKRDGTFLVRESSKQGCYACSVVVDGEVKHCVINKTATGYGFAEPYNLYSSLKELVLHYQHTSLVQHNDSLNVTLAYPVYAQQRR
MEASURE: IC50 p110 alpha/IC50 p110 delta

{"STRUCTURE_AS_SMILES": "Cc1nc2ccccc2n1-c1nc(N2CCOCC2)c2nc(CN3CCC(C(C)(C)O)CC3)ccc2n1", "MEASURE": "IC50 p110 alpha/IC50 p110 delta", "REPORTED_RESULT": 33}
{"STRUCTURE_AS_SMILES": "Fc1ccc2[nH]ccc2c1-c1ccc2nc(N3CCOCC3)nc(N3CCOCC3)c2n1", "MEASURE": "IC50 p110 alpha/IC50 p110 delta", "REPORTED_RESULT": 1.4}
{"STRUCTURE_AS_SMILES": "CC(C)(O)C1CCN(Cc2ccc3nc(-c4cccc5[nH]ncc45)nc(N4CCOCC4)c3n2)CC1", "MEASURE": "IC50 p110 alpha/IC50 p110 delta", "REPORTED_RESULT": 21}
{"STRUCTURE_AS_SMILES": "Fc1ccc2[nH]ccc2c1-c1nc(N2CCOCC2)c2nc(CN3CC(N4CCOCC4)C3)ccc2n1", "MEASURE": "IC50 p110 alpha/IC50 p110 delta", "REPORTED_RESULT": 257}

----------
molecular target: p110 alpha (Homo sapiens); construct: purchased Upstate Group, Millipore; Dundee, UK; assay: PI3K Isoform Inhibition Assay, p110 alpha (delta/alpha selectivity); details: ratio of biochemical IC50 values

{"MOLECULE": "CC(C)c1nc2ccccc2n1-c1nc(N2CCOCC2)c2nc(CN3CCC(C(C)(C)O)CC3)ccc2n1 [Compound 112]", "IC50 p110 alpha/IC50 p110 delta": 44}
{"MOLECULE": "CC(C)(C(N)=O)N1CCN(Cc2ccc3nc(-c4c(F)ccc5[nH]ccc45)nc(N4CCOCC4)c3n2)CC1 [Compound 121]", "IC50 p110 alpha/IC50 p110 delta": 203}
{"MOLECULE": "CC(C)(C(N)=O)N1CCN(Cc2ccc3nc(-c4c[nH]c5ccccc45)nc(N4CCOCC4)c3n2)CC1 [Compound 123]", "IC50 p110 alpha/IC50 p110 delta": 55}
{"MOLECULE": "CNc1ncccc1-c1nc(N2CCOCC2)c2nc(CN3CCC(C(C)(C)O)CC3)ccc2n1 [Compound 160]", "IC50 p110 alpha/IC50 p110 delta": 21}
{"MOLECULE": "CC(C)(O)C1CCN(C(=O)c2ccc3nc(-c4c(F)ccc5[nH]ccc45)nc(N4CCOCC4)c3n2)CC1 [Compound 118]", "IC50 p110 alpha/IC50 p110 delta": 77}
{"MOLECULE": "Cc1nc(N)ccc1-c1nc(N2CCOCC2)c2nc(CN3CCC(C(C)(C)O)CC3)ccc2n1 [Compound 116]", "IC50 p110 alpha/IC50 p110 delta": 43}
{"MOLECULE": "Cc1oc2ccccc2c1-c1nc(N2CCOCC2)c2nc(CN3CCC(C(C)(C)O)CC3)ccc2n1 [Compound 103]", "IC50 p110 alpha/IC50 p110 delta": 200}
{"MOLECULE": "CC(C)Oc1cnc2c(N3CCOCC3)nc(-c3cnc(N)nc3)nc2c1 [Compound 201]", "IC50 p110 alpha/IC50 p110 delta": 0.34}
{"MOLECULE": "OCc1ccc2nc(-c3c(F)ccc4[nH]ccc34)nc(N3CCOCC3)c2n1 [Compound 108]", "IC50 p110 alpha/IC50 p110 delta": 13.5}
{"MOLECULE": "CCc1nc2ccccc2n1-c1nc(N2CCOCC2)c2nc(CN3CC(N4CCOCC4)C3)ccc2n1 [Compound 131]", "IC50 p110 alpha/IC50 p110 delta": 36}
{"MOLECULE": "CC(C)(O)C1CCN(Cc2ccc3nc(-c4cccc5nccn45)nc(N4CCOCC4)c3n2)CC1 [Compound 161]", "IC50 p110 alpha/IC50 p110 delta": 17.8}
{"MOLECULE": "CC1(COc2ccc3nc(-c4cnc(N)nc4)nc(N4CCOCC4)c3n2)COC1 [Compound 188]", "IC50 p110 alpha/IC50 p110 delta": 0.18}
{"MOLECULE": "CC(C)(C(N)=O)N1CCN(Cc2ccc3nc(-c4ccc(N)nc4)nc(N4CCOCC4)c3n2)CC1 [Compound 124]", "IC50 p110 alpha/IC50 p110 delta": 14}
{"MOLECULE": "CC(C)c1nc2ccccc2n1-c1nc(N2CCOCC2)c2nc(C(=O)N3CCC(C(C)(C)O)CC3)ccc2n1 [Compound 119]", "IC50 p110 alpha/IC50 p110 delta": 15}
{"MOLECULE": "CC(C)(O)C1CCN(Cc2ccc3nc(-n4c(C(F)(F)F)nc5ccccc54)nc(N4CCOCC4)c3n2)CC1 [Compound 156]", "IC50 p110 alpha/IC50 p110 delta": 42}
{"MOLECULE": "CO[C@H](C)c1nc2ccccc2n1-c1nc(N2CCOCC2)c2nc(CN3CCC(C(C)(C)O)CC3)ccc2n1 [Compound 115]", "IC50 p110 alpha/IC50 p110 delta": 58}
{"MOLECULE": "CC(C)c1nc2ccccc2n1-c1nc(N2CCOCC2)c2nc(CN3CC(C4CCOCC4)C3)ccc2n1 [Compound 113]", "IC50 p110 alpha/IC50 p110 delta": 28.4}
{"MOLECULE": "Fc1ccc2[nH]ccc2c1-c1nc(N2CCOCC2)c2nc(CN3CC(N4CCC(F)(F)CC4)C3)ccc2n1 [Compound 125]", "IC50 p110 alpha/IC50 p110 delta": 246}
{"MOLECULE": "O=C1CN(C2CN(Cc3ccc4nc(-c5c(F)ccc6[nH]ccc56)nc(N5CCOCC5)c4n3)C2)CCN1 [Compound 127]", "IC50 p110 alpha/IC50 p110 delta": 141}
{"MOLECULE": "CC(C)(O)C1CCN(Cc2ccc3nc(-c4cccc5[nH]ccc45)nc(N4CCOCC4)c3n2)CC1 [Compound 109]", "IC50 p110 alpha/IC50 p110 delta": ">350"}
{"MOLECULE": "CC(C)(O)C1CCN(Cc2ccc3nc(-n4ccc5ccccc54)nc(N4CCOCC4)c3n2)CC1 [Compound 128]", "IC50 p110 alpha/IC50 p110 delta": 26}
{"MOLECULE": "COC1CN(c2cnc3c(N4CCOCC4)nc(-c4cnc(N)nc4)nc3c2)C1 [Compound 200]", "IC50 p110 alpha/IC50 p110 delta": 0.97}
{"MOLECULE": "CC(C)n1ncnc1-c1ccc2nc(-c3c(F)ccc4[nH]ccc34)nc(N3CCOCC3)c2n1 [Compound 141]", "IC50 p110 alpha/IC50 p110 delta": 9.4}
{"MOLECULE": "CC(C)(O)CNCc1ccc2nc(-c3c(F)ccc4[nH]ccc34)nc(N3CCOCC3)c2n1 [Compound 143]", "IC50 p110 alpha/IC50 p110 delta": 58}
{"MOLECULE": "Fc1ccc2[nH]ccc2c1-c1nc(N2CCOCC2)c2nc(CN3CC(C4CCOCC4)C3)ccc2n1 [Compound 111]", "IC50 p110 alpha/IC50 p110 delta": 281}
{"MOLECULE": "CC(F)(F)c1nc2ccccc2n1-c1nc(N2CCOCC2)c2nc(CN3CCC(C(C)(C)O)CC3)ccc2n1 [Compound 120]", "IC50 p110 alpha/IC50 p110 delta": 45}
{"MOLECULE": "Fc1ccc2[nH]ccc2c1-c1nc(N2CCOCC2)c2nc(CN3CCC(C4COC4)CC3)ccc2n1 [Compound 130]", "IC50 p110 alpha/IC50 p110 delta": 352}
{"MOLECULE": "O=S1(=O)CCN(C2CN(Cc3ccc4nc(-c5c(F)ccc6[nH]ccc56)nc(N5CCOCC5)c4n3)C2)CC1 [Compound 129]", "IC50 p110 alpha/IC50 p110 delta": 440}
{"MOLECULE": "Cc1cc(-c2nc(N3CCOCC3)c3nc(CN4CCC(C(C)(C)O)CC4)ccc3n2)cnc1N [Compound 132]", "IC50 p110 alpha/IC50 p110 delta": 10}
{"MOLECULE": "Nc1ncc(-c2nc(N3CCOCC3)c3ncc(C4CC4)cc3n2)cn1 [Compound 198]", "IC50 p110 alpha/IC50 p110 delta": 0.27}
